Value source: PubChem BioAssay

assay: LFS_MB_P medulloblastoma growth inhibition, cell-based, chromothripsis tumors, cisplatin or BGB combos (AID 1671449); conditions: LFS_MB_P medulloblastoma cells, measured here: combination with BGB IC20, at 0.005 µM;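 also: cells exposed for 96 hours; 0% = vehicle DMSO and 100% = killing by high DMSO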
quantity: inhibition (%)

compound=CN1C[C@@H]2C[C@H]1CN2c1cc2c(cc1F)c(=O)c(C(=O)O)cn2C1CC1 measurement_units=% numeric_value=-2.07
compound=C[C@@H](CN1CC(=O)NC(=O)C1)N1CC(=O)NC(=O)C1 measurement_units=% numeric_value=7.12
compound="COC1C(OC(N)=O)C(O)C(Oc2ccc3c(O)c(NC(=O)c4ccc(O)c(CC=C(C)C)c4)c(=O)oc3c2C)OC1(C)C (stereo not given)" measurement_units=% numeric_value=-14
compound=CN1CCN(c2c(F)cc3c(=O)c(C(=O)O)cn4c3c2OCN4C)CC1 measurement_units=% numeric_value=-16.9
compound=Nc1ccc2cc3ccc(N)cc3nc2c1 measurement_units=% numeric_value=13.5

###

biological target: Mitogen-activated protein kinase 7 (Homo sapiens) (UniProt Q13164); assay: ERK5 transactivation activators in reporter cells, primary screen, cell-based, HTS (AID 1508626); details: HeLa Gal4-ERK5 transactivation, 18 h, at 5 µM, stronger effect = higher value;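 also: luciferase driven by Gal4-ERK5 fusion binding five Gal4 sites before minimal TATA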
Sequence (Q13164 whole entry, looked up, the tested form may be a part): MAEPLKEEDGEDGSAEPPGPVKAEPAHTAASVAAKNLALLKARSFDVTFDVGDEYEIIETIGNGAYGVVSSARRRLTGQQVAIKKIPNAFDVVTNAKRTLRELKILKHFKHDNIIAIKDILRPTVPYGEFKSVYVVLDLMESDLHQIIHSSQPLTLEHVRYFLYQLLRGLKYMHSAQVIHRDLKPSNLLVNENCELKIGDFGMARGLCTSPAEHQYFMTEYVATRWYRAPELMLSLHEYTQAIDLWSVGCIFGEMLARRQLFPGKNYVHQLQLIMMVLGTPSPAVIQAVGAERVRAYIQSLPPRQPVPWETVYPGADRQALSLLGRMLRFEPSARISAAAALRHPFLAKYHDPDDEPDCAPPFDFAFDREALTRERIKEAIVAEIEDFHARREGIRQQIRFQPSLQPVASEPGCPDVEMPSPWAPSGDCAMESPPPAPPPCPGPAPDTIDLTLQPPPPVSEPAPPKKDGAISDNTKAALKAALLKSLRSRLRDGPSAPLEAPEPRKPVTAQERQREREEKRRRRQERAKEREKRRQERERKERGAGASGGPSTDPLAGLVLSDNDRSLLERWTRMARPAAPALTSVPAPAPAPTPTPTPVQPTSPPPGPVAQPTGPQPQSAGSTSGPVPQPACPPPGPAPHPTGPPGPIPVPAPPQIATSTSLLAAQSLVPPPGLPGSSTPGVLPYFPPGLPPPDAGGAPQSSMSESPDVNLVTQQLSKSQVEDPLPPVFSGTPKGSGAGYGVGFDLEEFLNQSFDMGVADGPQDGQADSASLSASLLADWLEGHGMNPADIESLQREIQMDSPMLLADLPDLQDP
Active and inactive are the calls of the source.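 How the source made its calls: active means luciferase signal above three times the same-plate solvent-only control wells; inactive means the rest.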
Here the recorded luciferase signal is given for each entry.
quantity: luciferase signal

compound=C[C@H]1O[C@@H](O[C@H]2[C@@H](O)C[C@H](O[C@H]3[C@@H](O)C[C@H](O[C@H]4CC[C@@]5(C)[C@H](CC[C@@H]6[C@@H]5C[C@@H](O)[C@]5(C)[C@@H](C7=CC(=O)OC7)CC[C@]65O)C4)O[C@@H]3C)O[C@@H]2C)C[C@H](O)[C@@H]1O result="24 AU (inactive)"
compound=Nc1ccc(S(=O)(=O)Nc2ncccn2)cc1 result="40 AU (inactive)"
compound=CC[C@H]1OC(=O)C[C@@H](O)[C@H](C)[C@@H](O[C@@H]2O[C@H](C)[C@@H](O[C@H]3C[C@@](C)(O)[C@@H](O)[C@H](C)O3)[C@H](N(C)C)[C@H]2O)[C@@H](CC=O)C[C@@H](C)C(=O)/C=C/C(C)=C/[C@@H]1CO[C@@H]1O[C@H](C)[C@@H](O)[C@@H](OC)[C@H]1OC result="16 AU (inactive)"
compound=COc1cccc2c1CCC1=CC(=O)CC[C@@]12C result="40 AU (inactive)"
compound=CO[C@H]1C[C@H](O[C@@H]2/C(C)=C/C[C@@H]3C[C@@H](C[C@]4(CC[C@H](C)[C@@H](C5CCCCC5)O4)O3)OC(=O)[C@@H]3C=C(C)/C(=N/O)[C@H]4OC/C(=C\C=C\[C@@H]2C)[C@]43O)O[C@@H](C)[C@@H]1O result="36 AU (inactive)"
compound="CCOC(=O)C(Cc1ccc(O)cc1)NC(C)=O (stereo unspecified)" result="72 AU (inactive)"

###

assay: HD-MB03 medulloblastoma cell growth inhibition, synergistic combos for chromothripsis tumors, BGB or cisplatin IC20 combos (AID 1671455); settings: HD-MB03 medulloblastoma cells, at 0.5 µM, stronger effect = higher value;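 also: 0% = vehicle DMSO and 100% = high DMSO as cytotoxic control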
quantity: inhibition (%)

compound=O=c1c(O)c(-c2ccc(O)c(O)c2)oc2cc(O)ccc12 measurement_units=% numeric_value=-0.08
compound=Cc1ccc2nc(N)[nH]c(=O)c2c1Sc1ccncc1 measurement_units=% numeric_value=-15.4
compound=CN1C[C@@H]2C[C@H]1CN2c1cc2c(cc1F)c(=O)c(C(=O)O)cn2C1CC1 measurement_units=% numeric_value=-14.8
compound="CNC1CCCN(c2c(F)cc3c(=O)c(C(=O)O)cn(C4CC4)c3c2OC)C1 (stereo not drawn)" measurement_units=% numeric_value=-11
compound=CCn1nc(C(=O)O)c(=O)c2cc3c(cc21)OCO3 measurement_units=% numeric_value=-4.61
compound="COC1C(OC(N)=O)C(O)C(Oc2ccc3c(O)c(NC(=O)c4ccc(O)c(CC=C(C)C)c4)c(=O)oc3c2C)OC1(C)C (stereo not drawn)" measurement_units=% numeric_value=-9.35
compound=O=c1cc[nH]c(=O)[nH]1 measurement_units=% numeric_value=-17.8
compound=CN1CCN(c2c(F)cc3c(=O)c(C(=O)O)cn(CCF)c3c2F)CC1 measurement_units=% numeric_value=6.76
